Assign BaF3-ROS1-IL3 pIC50 to each entry below.
Measured target: Ba/F3 cells containing Ros1 wild-type protein (Homo sapiens, UniProt P08922, cells depend on it, form not given)
Construct: The background only speaks of 'a number of different unrelated proteins' and names SLC34A2-ROS1 for HCC78 cells
Sequence (P08922 whole entry, stated change not applied): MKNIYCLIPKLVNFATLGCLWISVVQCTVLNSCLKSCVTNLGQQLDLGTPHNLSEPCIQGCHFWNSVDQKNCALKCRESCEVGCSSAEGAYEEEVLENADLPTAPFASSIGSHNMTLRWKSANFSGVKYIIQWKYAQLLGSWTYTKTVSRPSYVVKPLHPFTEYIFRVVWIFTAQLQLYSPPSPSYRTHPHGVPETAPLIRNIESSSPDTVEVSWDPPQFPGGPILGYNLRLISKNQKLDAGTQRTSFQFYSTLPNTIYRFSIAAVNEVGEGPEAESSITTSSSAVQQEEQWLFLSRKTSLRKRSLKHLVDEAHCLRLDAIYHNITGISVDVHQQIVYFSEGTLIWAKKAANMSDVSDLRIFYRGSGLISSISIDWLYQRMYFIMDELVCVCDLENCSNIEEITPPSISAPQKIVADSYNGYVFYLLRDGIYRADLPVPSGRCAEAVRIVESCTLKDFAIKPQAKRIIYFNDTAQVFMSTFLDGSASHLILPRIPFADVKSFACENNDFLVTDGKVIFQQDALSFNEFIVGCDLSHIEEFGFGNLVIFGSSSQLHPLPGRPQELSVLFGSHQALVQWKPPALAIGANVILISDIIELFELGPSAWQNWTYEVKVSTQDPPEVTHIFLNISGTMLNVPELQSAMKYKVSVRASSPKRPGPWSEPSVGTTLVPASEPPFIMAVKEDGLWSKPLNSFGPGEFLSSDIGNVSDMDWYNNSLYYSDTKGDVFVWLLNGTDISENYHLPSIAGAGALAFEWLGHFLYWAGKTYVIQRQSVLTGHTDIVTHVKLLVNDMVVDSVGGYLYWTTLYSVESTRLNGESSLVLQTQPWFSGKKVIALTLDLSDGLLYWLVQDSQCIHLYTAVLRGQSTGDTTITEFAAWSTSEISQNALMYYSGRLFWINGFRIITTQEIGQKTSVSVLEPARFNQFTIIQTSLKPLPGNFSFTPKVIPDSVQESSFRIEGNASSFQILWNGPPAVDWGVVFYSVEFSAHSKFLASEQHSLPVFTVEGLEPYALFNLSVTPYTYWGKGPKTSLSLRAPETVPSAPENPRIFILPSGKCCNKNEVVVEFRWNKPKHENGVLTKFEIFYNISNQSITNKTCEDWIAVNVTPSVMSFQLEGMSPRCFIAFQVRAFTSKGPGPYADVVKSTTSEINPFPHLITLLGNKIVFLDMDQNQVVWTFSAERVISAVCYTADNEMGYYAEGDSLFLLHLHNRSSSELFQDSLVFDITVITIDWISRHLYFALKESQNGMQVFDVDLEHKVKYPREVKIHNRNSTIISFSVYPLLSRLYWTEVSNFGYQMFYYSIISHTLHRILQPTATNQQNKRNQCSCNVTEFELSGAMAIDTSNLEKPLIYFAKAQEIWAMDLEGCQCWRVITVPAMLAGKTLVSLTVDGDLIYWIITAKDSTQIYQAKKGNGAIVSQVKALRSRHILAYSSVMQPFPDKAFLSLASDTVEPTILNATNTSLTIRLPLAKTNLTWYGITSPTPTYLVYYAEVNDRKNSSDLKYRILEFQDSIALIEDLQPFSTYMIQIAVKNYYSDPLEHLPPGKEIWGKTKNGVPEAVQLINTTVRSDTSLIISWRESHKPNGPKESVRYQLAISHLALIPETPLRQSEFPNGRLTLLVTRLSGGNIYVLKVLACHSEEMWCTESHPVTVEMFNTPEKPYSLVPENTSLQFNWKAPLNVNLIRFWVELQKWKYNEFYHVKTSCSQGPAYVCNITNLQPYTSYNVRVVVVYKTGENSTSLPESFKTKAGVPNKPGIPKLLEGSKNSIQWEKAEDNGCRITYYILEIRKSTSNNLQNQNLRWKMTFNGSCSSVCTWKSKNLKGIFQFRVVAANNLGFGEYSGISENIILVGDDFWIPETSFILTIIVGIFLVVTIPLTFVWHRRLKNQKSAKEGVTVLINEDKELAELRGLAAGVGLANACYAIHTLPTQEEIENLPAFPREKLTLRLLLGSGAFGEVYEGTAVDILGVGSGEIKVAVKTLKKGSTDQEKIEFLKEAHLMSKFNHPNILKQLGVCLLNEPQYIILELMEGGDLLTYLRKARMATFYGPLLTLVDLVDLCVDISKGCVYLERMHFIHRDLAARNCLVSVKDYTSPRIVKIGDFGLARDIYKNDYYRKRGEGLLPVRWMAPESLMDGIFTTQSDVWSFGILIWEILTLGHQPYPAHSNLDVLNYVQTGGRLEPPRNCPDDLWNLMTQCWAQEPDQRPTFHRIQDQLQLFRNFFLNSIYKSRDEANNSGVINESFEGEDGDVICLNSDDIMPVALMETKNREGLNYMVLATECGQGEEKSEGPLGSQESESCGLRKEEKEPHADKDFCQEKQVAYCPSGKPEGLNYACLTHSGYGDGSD
Assay: Ba/F3-Ros1 cell proliferation assay, wild-type Ros1
Format: cell-based, murine
Settings: without IL-3
One number for each entry.

So for CC(C)c1ccc(CC(=O)N2CC=C(c3c(-c4ccncc4)nn4c3C(=O)NCC4)CC2)cc1 , the logged BaF3-ROS1-IL3 pIC50 turned out to be 6.3

So for CC(C)c1ccc(COc2ccc(-c3c(-c4ccnc5[nH]ccc45)nn4c3C(=O)N(CCO)CC4)cc2)cc1 , the logged BaF3-ROS1-IL3 pIC50 turned out to be 8.0

So for CC(C)c1ccc(COc2ccc(-c3c(-c4ccncc4)nn4c3C(=O)N(CCO)CC4)cc2)cc1CCO , the logged BaF3-ROS1-IL3 pIC50 turned out to be 7.6

In the following, a different compound is considered.
So for CC(O)CN1CCn2nc(-c3ccncc3)c(-c3ccc(OCc4ccc(C(C)C)cc4)cc3)c2C1=O (stereo not shown) [Compound 47] , the logged BaF3-ROS1-IL3 pIC50 turned out to be 7.3

====

Measured target: Ros1 enzyme (Homo sapiens)
Construct: 0.5 μg/ml Ros1 enzyme
Sequence (P08922 28-2347): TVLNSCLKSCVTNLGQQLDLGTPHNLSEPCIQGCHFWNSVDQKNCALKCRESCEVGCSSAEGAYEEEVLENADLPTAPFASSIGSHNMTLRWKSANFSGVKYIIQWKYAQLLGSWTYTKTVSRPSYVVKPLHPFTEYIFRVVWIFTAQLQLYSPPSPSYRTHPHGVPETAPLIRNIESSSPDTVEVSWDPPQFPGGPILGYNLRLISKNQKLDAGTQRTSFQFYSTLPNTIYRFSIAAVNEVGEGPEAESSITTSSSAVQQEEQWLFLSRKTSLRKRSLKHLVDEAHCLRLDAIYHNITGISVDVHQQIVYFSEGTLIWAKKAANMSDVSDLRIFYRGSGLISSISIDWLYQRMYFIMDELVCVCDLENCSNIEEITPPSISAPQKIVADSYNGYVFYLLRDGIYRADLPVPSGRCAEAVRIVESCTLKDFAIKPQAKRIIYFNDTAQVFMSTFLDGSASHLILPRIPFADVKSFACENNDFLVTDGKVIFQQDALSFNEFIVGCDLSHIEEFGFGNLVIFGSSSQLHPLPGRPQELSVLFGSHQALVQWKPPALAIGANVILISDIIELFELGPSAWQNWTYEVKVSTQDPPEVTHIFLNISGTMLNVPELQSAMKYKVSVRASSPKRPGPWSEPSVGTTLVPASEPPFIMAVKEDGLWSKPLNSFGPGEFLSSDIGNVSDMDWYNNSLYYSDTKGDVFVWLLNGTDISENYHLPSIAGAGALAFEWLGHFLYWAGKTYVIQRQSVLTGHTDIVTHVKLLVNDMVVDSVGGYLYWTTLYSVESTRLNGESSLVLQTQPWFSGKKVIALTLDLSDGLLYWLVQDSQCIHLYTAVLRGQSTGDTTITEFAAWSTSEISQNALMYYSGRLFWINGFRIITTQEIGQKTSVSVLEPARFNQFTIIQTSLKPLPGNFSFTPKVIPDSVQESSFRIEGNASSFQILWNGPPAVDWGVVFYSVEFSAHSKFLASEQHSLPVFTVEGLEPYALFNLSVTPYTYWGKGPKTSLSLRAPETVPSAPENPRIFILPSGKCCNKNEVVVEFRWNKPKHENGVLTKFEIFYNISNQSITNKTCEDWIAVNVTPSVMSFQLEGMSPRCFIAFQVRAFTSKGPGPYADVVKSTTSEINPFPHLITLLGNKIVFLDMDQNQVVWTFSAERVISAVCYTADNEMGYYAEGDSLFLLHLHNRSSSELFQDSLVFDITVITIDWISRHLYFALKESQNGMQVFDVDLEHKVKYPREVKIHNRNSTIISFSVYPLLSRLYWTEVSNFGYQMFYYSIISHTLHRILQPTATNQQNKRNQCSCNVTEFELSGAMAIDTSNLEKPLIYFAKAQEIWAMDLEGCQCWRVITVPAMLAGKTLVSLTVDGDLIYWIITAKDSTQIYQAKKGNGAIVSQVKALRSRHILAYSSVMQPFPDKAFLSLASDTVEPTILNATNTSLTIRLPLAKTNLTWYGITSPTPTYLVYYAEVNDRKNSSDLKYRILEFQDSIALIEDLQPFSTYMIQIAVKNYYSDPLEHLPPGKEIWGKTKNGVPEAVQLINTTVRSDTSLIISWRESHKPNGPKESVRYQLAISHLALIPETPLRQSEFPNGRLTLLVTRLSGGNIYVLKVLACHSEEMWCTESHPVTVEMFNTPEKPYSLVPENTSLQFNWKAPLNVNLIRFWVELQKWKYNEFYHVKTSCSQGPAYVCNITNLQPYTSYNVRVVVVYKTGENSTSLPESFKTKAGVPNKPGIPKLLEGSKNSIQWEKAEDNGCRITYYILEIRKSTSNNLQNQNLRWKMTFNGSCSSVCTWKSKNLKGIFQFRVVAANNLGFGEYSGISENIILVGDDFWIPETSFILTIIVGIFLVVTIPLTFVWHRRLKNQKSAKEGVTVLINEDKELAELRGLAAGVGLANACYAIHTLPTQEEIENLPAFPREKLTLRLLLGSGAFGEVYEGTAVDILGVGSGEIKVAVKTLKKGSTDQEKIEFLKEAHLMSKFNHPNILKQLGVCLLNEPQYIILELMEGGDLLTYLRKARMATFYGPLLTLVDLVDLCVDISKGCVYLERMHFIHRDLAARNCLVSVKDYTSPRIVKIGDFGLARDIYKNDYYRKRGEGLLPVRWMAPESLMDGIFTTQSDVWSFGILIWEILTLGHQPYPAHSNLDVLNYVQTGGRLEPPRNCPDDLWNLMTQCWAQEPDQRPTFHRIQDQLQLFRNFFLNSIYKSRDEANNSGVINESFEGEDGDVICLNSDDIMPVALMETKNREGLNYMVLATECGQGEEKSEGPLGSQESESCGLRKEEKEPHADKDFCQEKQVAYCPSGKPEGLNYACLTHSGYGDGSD
Assay: Ros1 enzymatic assay
Assay type: biochemical
Settings: Ros1 enzymatic assay; read-out: ROS1 pIC50 (converted)
Lab note: anything with IC50 below 100 nM is marked YES; values at 100 nM or higher are marked NO.

IC50 strictly < 100 nM for this compound? O=C1c2c(-c3ccc(OCc4ccc(OC(F)(F)F)cc4)cc3)c(-c3ccncc3)nn2CCN1CCO [Compound 117]
NO

Further cases:
IC50 strictly < 100 nM for this compound? CC(C)c1ccc(COc2ccc(-c3c(-c4ccncc4)nn4c3C(=O)N(C(C)CO)CC4)cc2)cc1 (single isomer, unassigned) [Compound 39]
YES

IC50 strictly < 100 nM for this compound? c1cc(-c2nn3c(c2-c2ccc(OCc4ccc(C5CC5)nc4)cc2)CNCC3)ccn1 [Compound 186]
NO

IC50 strictly < 100 nM for this compound? CC(C)c1ccc(COc2ccc(-c3c(-c4ccnc5[nH]ccc45)nn4c3C(=O)N(CCO)CC4)cc2)cc1 [Compound 156]
YES

IC50 strictly < 100 nM for this compound? CC(C)c1ccc(CC(=O)N2CC=C(c3c(-c4ccncc4)nn4c3C(=O)NCC4)CC2)cc1 [Compound 77]
NO

IC50 strictly < 100 nM for this compound? CC(C)c1ccc(COc2ccc(-c3c(-c4ccncc4)nn4c3C(=O)NC(CN(C)CCO)C4)cc2)cc1 (stereo not shown) [Compound 195]
NO

====

Measured target: Ros1 enzyme (Homo sapiens)
Construct: 0.5 μg/ml Ros1 enzyme
Assay: Ros1 enzymatic assay
Assay type: biochemical
Settings: Ros1 enzymatic assay; read-out: ROS1 pIC50 (converted)
Measured endpoint: log10 of IC50 (log10 of the value in nM)
Hey, these are logged values: log10 of IC50, nM being the unit before logging.

Quick batch: log10 of IC50 for everything below.
1. CC(C)c1cc(F)c(COc2ccc(-c3c(-c4ccncc4)nn4c3C(=O)N(CC(O)CO)CC4)cc2)cc1F (stereo not shown) [Compound 98]
2. CC(C)c1ccc(COc2ccc(-c3c(-c4ccncc4)nn4c3C(=O)NCC4)c(F)c2)cc1CCO
3. CC(C)c1cc(F)c(COc2ccc(-c3c(-c4ccncc4)nn4c3C(=O)N(CCO)CC4)cc2)c(F)c1

1. 2.40
2. 0.80
3. 2.00

Quick batch: log10 of IC50 for everything below.
1. CC(C)c1ccc(COc2ccc(-c3c(-c4ccncc4)nn4c3C(=O)N(CC(O)CO)CC4)cc2)c(F)c1F (stereo not shown) [Compound 101]
2. Fc1cc(OCc2ccc(C3CC3)cc2)ccc1-c1c(-c2ccncc2)nn2c1CNCC2
3. CC(C)c1ccc(COc2ccc(-c3c(-c4ccncc4)nn4c3C(=O)NCC4)c(C#N)c2)cc1

[2.60, 2.00, 1.20]

So for CC(O)CN1CCn2nc(-c3ccncc3)c(-c3ccc(OCc4ccc(C5CC5)cc4)cc3)c2C1=O (stereo not shown) [Compound 135] , the logged log10 of IC50 turned out to be 2.20

====

Assign melting point to each entry below.
Give bare numbers, in °C.

Check out these entries, answers already filled in.
So for CC(C)c1ccc(COc2ccc(-c3c(-c4ccncc4)nn4c3C(=O)NCC4)c(F)c2F)cc1 , the logged melting point turned out to be 214

So for CC(C)c1ccc(COc2ccc(-c3c(-c4ccncc4)nn4c3C(=O)NCC4)cc2F)cc1 , the logged melting point turned out to be 241

So for CC1CNCc2c(-c3ccc(OCc4ccc(C5CC5)cc4)cc3)c(-c3ccncc3)nn21 (centres unmarked) , the logged melting point turned out to be 153

So for CC(C)c1ccc(CC(=O)c2ccc(-c3c(-c4ccncc4)nn4c3C(=O)NCC4)cc2)cc1 , the logged melting point turned out to be 259

So for O=C1NCCn2nc(-c3ccncc3)c(-c3ccc(OCc4cccc(C(F)(F)F)c4)cc3)c21 , the logged melting point turned out to be 293

So for O=C1NCCn2nc(-c3ccncc3)c(-c3ccc(OCc4ccc(OC(F)F)cc4)cc3)c21 , the logged melting point turned out to be 250

Quick batch: melting point for everything below.
1. CC(C)c1ccc(COC2CCN(c3c(-c4ccncc4)nn4c3C(=O)N(C)CC4)CC2)cc1
2. CC(C)c1ccc(COc2ccc(-c3c(-c4ccncc4)nn4c3C(=O)NC(CN(C)CCO)C4)cc2)cc1 (centres unmarked)

1. 140
2. 193

====

Measured target: Ros1 enzyme (Homo sapiens)
Construct: 0.5 μg/ml Ros1 enzyme
Assay: Ros1 enzymatic assay
Type: biochemical
Settings: Ros1 enzymatic assay; read-out: ROS1 pIC50 (converted)
Measured endpoint: IC50 (nM)
Give bare numbers, in nM.

Check out these entries, answers already filled in.
So the reported IC50 for CC(C)c1ccc(C2CNc3cc(-c4c(-c5ccncc5)nn5c4C(=O)NCC5)ccc3O2)cc1 (stereo not shown) [Compound 225] , on Ros1 enzyme (Homo sapiens), turned out to be 316

So the reported IC50 for CC(C)c1ccc(COc2ccc(-c3c(-c4ccncc4)nn4c3C(=O)N(CC3COC(C)(C)O3)CC4)cc2)cc1 (stereo not shown) , on Ros1 enzyme (Homo sapiens), turned out to be 398

So the reported IC50 for CC(C)c1ccc(COc2ccc(-c3c(-c4ccncc4)nn4c3C(=O)N(CC(O)CO)CC4)cc2)cc1 (stereo not shown) [Compound 41] , on Ros1 enzyme (Homo sapiens), turned out to be 31.6

So the reported IC50 for CC(C)c1ccc(COc2c(F)cc(-c3c(-c4ccncc4)nn4c3C(=O)NCC4)cc2F)cc1 , on Ros1 enzyme (Homo sapiens), turned out to be 39.8

So the reported IC50 for COC(=O)c1cccc(COc2ccc(-c3c(-c4ccncc4)nn4c3C(=O)NCC4)cc2)c1 , on Ros1 enzyme (Homo sapiens), turned out to be 631

Quick batch: IC50 for everything below.
1. CC(C)c1ccc(COc2ccc(-c3c(-c4ccncc4)nn4c3CN(CC(=O)N(C)C)CC4)cc2)cc1
2. CC(C)c1ccc(COc2ccc(-c3c(-c4ccncc4)nn4c3C(=O)N(CCO)CC4)c(F)c2)cc1
3. C[Si](C)(C)c1ccc(COc2ccc(-c3c(-c4ccncc4)nn4c3C(=O)NCC4)cc2)cc1
4. CC(C)c1ccc(COC2CCN(c3c(-c4ccncc4)nn4c3C(=O)N(C)CC4)CC2)cc1
5. CC(C)c1ccc(COc2ccc(-c3c(-c4ccncc4)nn4c3C(=O)N(C)CC4)cc2)cc1
6. CC(O)CN1CCn2nc(-c3ccncc3)c(-c3ccc(OCc4ccc(C(C)C)cc4)cc3)c2C1 (stereo not shown)
7. COCCOc1cc(COc2ccc(-c3c(-c4ccncc4)nn4c3C(=O)NCC4)cc2)ccc1C(C)C

[200, 10, 2000, 126, 31.6, 158, 79.4]

So the reported IC50 for O=C1NCCn2nc(-c3ccncc3)c(-c3ccc(OCc4ccc(C5CC5)cc4)cc3)c21 , on Ros1 enzyme (Homo sapiens), turned out to be 39.8

====

Measured endpoint: melting point (°C)
Numbers only, in °C.

Check out these entries, answers already filled in.
So for COc1cc(-c2c(-c3ccncc3)nn3c2C(=O)NCC3)cc(OC)c1OCc1ccc(C(C)C)cc1 , the logged melting point turned out to be 192

So for CC(C)c1ccc(COc2ccc(-c3c(-c4ccncc4)nn4c3CN(CC(=O)NCCO)CC4)cc2)cc1 , the logged melting point turned out to be 189

So for O=C1c2c(-c3ccc(OCc4ccc(C5CC5)cc4)cc3)c(-c3ccncc3)nn2CCN1CCO , the logged melting point turned out to be 194

So for CC(C)c1ccc(COc2ccc(-c3c(-c4ccncc4)nn4c3C(=O)N(CCO)CC4)cc2)cc1CCO , the logged melting point turned out to be 176

So for CC(C)c1ccc(COc2cc(F)c(-c3c(-c4ccncc4)nn4c3C(=O)NCC4)c(F)c2)cc1 , the logged melting point turned out to be 235

Quick batch: melting point for everything below.
1. CC(C)c1ccc(COc2ccc(-c3c(-c4ccncc4)nn4c3C(=O)N(CCO)CC4)c(F)c2F)cc1
2. CC(O)CN1CCn2nc(-c3ccncc3)c(-c3ccc(OCc4ccc(C(C)C)cc4)cc3)c2C1=O (stereo not shown)

1: 138; 2: 177
